- Assay comment: protein stability index of a GFP-peptide fusion (yeast GPS) (PSI 1-4); higher = more stable; sorted into four equal gates, so the index is relative within each strain
- Condition parameters: doa10∆

Query sequence	protein stability index
SVISGNLSLYEATAASH [CSN12]	2.28
TMEVKSFPILDQCVGQV [YMR129W/POM152]	2.19
AAKIIYLAHEDNKEKDF [PRE10]	2.81
KLDIISDPESERPAIEF [RPN14]	2.94
FVPVPSLAGFHKVQTKL [RPS7A]	2.53
ILLTSISRERDLFTHLW [SRP68]	2.85
MSGYDRALSIFSPDGHI [PRE6]	2.82
ADAQIQRETYDSNESDD [YLR335W/NUP2]	2.07
VYSKQATFLLTDIKDTL [MCD1]	2.27
NPNTNTNSNNTPLQSQL [PGD1]	2.91
QGRRNSRNFSTRDEETT [SIR4]	3.04
VKYMPEQKITEIEDGQD [RPO21]	3.19
NSSNYAELFNNDIKLFV [PRP8]	2.44
MDYHFIFSYLQFTSSLF [RGR1]	2.08
QNMQQSLQQMQHLQQLK [GAL11]	2.96
AKRVENFNSSAPIADDN [DSN1]	3.19
TKNGTPNPNNMKTVQSP [GAL11]	2.96
KLNTFENDLLQEFDSEL [SMC3]	3.22
NIRSQLLSENRSEKSTT [SRP54]	3.04
CLDQMTEQFCATLNYID [SRB7]	2.39
YQKNKPYPKSRYNRAVP [RPL10]	2.91
VLVASAKGLQTVVVEED [RPL31A]	2.19
LTRFSHDADLEVSMNSI [RPN1]	3.24
NGVVKKAAAGAGSAALK [RPO31]	3.51
KISLRDICLKLNLDSEQ [RPN3]	3.46
EEASQQQQLQQNSKEKN [MED2]	2.85
ANEEPNTENVESVPTPA [ITC1]	2.87
LGVIHKGNLLEGKKVMA [RPN2]	1.37
TLQDIGFYQIKKIVDSK [YMR129W/POM152]	2.64
KKIVDDTIMENPEPNKK [IRR1]	2.14

* * *

- Assay comment: protein stability index of a GFP-peptide fusion (yeast GPS) (PSI 1-4); higher = more stable; sorted into four equal gates, so the index is relative within each strain
- Condition parameters: san1∆
List of protein stability index values.

Query sequence	protein stability index
CVKNHGQSSSIQSSLMT [YCS4]	2.83
NGFHGRLGDLGVIDDSF [SMC4]	3.11
TSQNPQRDAEISQPKSM [BRR2]	3.11
HINSILLARVIQMNNSL [SNF11]	1.96
MQTALRRLPEDESYARA [QCR7]	2.34
VKIGKFIPHGLKRRQVI [SRB8]	3.11
KMLKIWTMAFRTMDDIK [ECM29]	2.06
RGIPRLSEDELRELDVE [SMC4]	3.36
LGKQSSSLLSRLISSKM [FAS2]	3.02
KEEFRLMISPKDEETTE [RRI2]	1.14
DSDGTRLKGDIFCVGSG [PRE2]	2.93
GMPNMPGMPNMPGMPNM [SRP54]	3.13
EPGHAADQEQAKLIRSA [RPO21]	2.69
PNSERETDHANTENNDP [IRR1]	2.73
LQSDKNFLDNCLFENDL [ITC1]	2.92
PYMNHKNTSSMDFLNSM [GAL11]	2.48
LCRNPLTSGLLYSYLIK [YJL039C/NUP192]	1.67
VHKLRHYLVNLTSPAFG [GRR1]	1.34
EFSPRLHNIWSNGLLSI [YML103C/NUP188]	2.08
AEEFDFNVPVVSKQLGN [YAR002W/NUP60]	1.28
SGSLFGSNNAQTSRGLF [YGL172W/NUP49]	2.95
DRKIEFPPPSVAARAEI [RPT6]	1.83
ENEEFITFLQTLYIGNT [ECM29]	2.38
LRPGQEISLKAHCILGI [RPC40]	2.14
VNIEPFNIDDEIKHGVF [LIN1]	3.45
SASPHLAPNMQLNGNET [SNF2]	3.1
QIQFTPLIKKIKYEPRF [SMC3]	2.83
IEITNSNDLCSQIFDQL [SRB8]	2.69
LFGQSQQPQTNTAPGLG [YGR119C/NUP57]	3.14
LSFTPTTVIGIRGSDQA [RPN2]	1.78
LDYQIGNSESKVEKGVN [LIN1]	2.92
ETVFNYRLMIKRLNFSF [GRR1]	1.27
NENKVIIELPNEKFEIE [SRB4]	2.94
VKKILPLYARYINVNPQ [ECM29]	3.06
LGIEAARYSIIREINYT [RPO31]	1.31
SKGFVFNSVQKKSRSNL [YAR002W/NUP60]	2.96
WREQLRNRDIALFQPPN [ROX3]	2.73
GLRTENVLDYFAESPFF [MED6]	2.94
LENSSRSPRVVTNALDN [NUT1]	2.28
YGYFSVGKRVPIVEDRR [SIR4]	2.16
GPVGKECADLWPRVASN [RPL23A]	3.17
WDLSVEDALYLGKRSIL [PRE2]	3.17
KDLEIRKLEISSRFKHR [GAL11]	3.16
DERSQGEKNFTSAHLKL [SMC4]	3.14
VECTISILRKSSPEEPF [SNF12]	2.32
NRRLFKKCIDFFEMLIS [RRI2]	2.12
NNDADKGRSYAYFMVGA [RIP1]	3.29
LLIIRSLKNTDALLNST [YJL039C/NUP192]	2.37
DSPASNEDDLTVKLTEI [RPO31]	2.97
TELTHHLLPRNEWIKAQ [QCR7]	2.04
NLENHFKKSKIDHINEE [SCL1]	2.64
EVAKKRSRKTVKAQRPI [RPL24A]	3.18
GMVKLNEYPVADAVTKD [REC8]	3.28
NIRSQLLSENRSEKSTT [SRP54]	3.01
VGKQIVNIPSFMVRLDS [RPS9A]	2.42
SPYGNLQNDLIHKIQND [RPN5]	2.82
RVNGSEFVHKYLGEGPR [RPT3]	2.79
MAKDNLTNLLSQLNIQL [SRP72]	3.15
IVNGQTFSYVDSSLQPE [YMR129W/POM152]	2.62
ELVVFLPALCKKMGVPY [RPL8A]	2.78

* * *

- Assay comment: protein stability index of a GFP-peptide fusion (yeast GPS) (PSI 1-4); higher = more stable; sorted into four equal gates, so the index is relative within each strain
- Condition parameters: doa10∆
Output class 1 for protein stability index not less than 3; output class 0 otherwise.

Query sequence	Class name
LHKIFYKVLKNNGLPEC [YCG1]	class 0
LPGKVNTKEEFAAAPND [SNF5]	class 0
SPIFEVLSDDAKKLSSF [ARP9]	class 0
RERQVNEKLADLGLEKE [RPC53]	class 1
AFHTAVLRLNAIPLLKV [NUT1]	class 0
TLIKKKQDEKKSSELEL [SMC2]	class 1
VFTMKELAQYMKTNVHT [RGR1]	class 0
HLVMRAISLGLLKGSID [RPN9]	class 0
EKLYIFYKLNMPDEFNT [SRP72]	class 0
KKLSKKYNAFIASEVLI [RPL1A]	class 0
LETDGVNLSEVMTVPGI [RPO21]	class 0
IRNVLVTVDQYVNVAIS [SSN2]	class 0
VKLIVMLCTLTGYQNND [YJL039C/NUP192]	class 0
PEGYKAKSISTSAKEPS [RPO31]	class 0
KDLVTENAYDNPLADAE [PRE4]	class 1
LAKERQKLWLLECQLFP [SSN8]	class 0
MTDMQIQWYKSLLEKDI [ISW2]	class 0
TGQNFLTSNISSLVRSC [REC8]	class 1
LDLAGPLLAQLFKTLFK [RPB2]	class 0
TVNHSEKFPNDVKLLNP [RPP1]	class 0
DDINKAKAVWENIIIVG [ARP9]	class 0

* * *

- Assay comment: protein stability index of a GFP-peptide fusion (yeast GPS) (PSI 1-4); higher = more stable; sorted into four equal gates, so the index is relative within each strain
- Condition parameters: doa10∆
Given measured protein stability index, output Criterion met if it is greater than or equal to 3 and Criterion not met if not.

Query sequence	Class name
KAKRQINSGTNSANGSS [SSN3]	Criterion not met
PQQPMVKTKTIELIDYD [RET1]	Criterion not met
LSRAEYDSDSDSSVEDS [LIN1]	Criterion met
FKAEKLQIVNQLPANMV [RPC17]	Criterion met
LKNVNKRAFENFKKFNE [SMC3]	Criterion not met

* * *

Items are presented alongside their recorded protein stability index.
- Assay comment: protein stability index of a GFP-peptide fusion (yeast GPS) (PSI 1-4); higher = more stable; sorted into four equal gates, so the index is relative within each strain
- Condition parameters: ubr1∆

Query sequence	protein stability index
MINDENYIINDIKKNNK [SRB8]	3.21
EDHIFFKYIYELILAGA [YDL116W/NUP84]	1.66
LALALGILYMGQGEQVD [RPN1]	1.23
IGLVKCTQMTDEGLLNM [GRR1]	2.91
NKSRSSGHFSTDSRTGQ [CDC53]	3.14
PQALRVLRLKPGRKYTT [RPL16A]	3.21
SARNYDKFKLNENDLKT [SMC1]	2.53
